Target: T1, Biotin sY48 PSGL-1(42-62) peptide (human, sulfotyrosine at Y48; C-terminal Lys-biotin)
T1 construct: also called sY48S
T1 peptide: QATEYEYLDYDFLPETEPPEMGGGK
Experiment: ELISA, plate-bound mAb captures biotin peptide
parameter_measured: EC50

binder	parameter_measured	result
SELK1 (antibody, V domains shown, Control anti-PSGL-1 mAb; only variable domains given) VH: QVQLQQSGPGLVKPSQTLSLTCAISGDSVSSNIAAWHWIRLSPSRGLEWLGRTYYRRSKWNYDYALSVKSRININPDTSKNLFSLQLNSVTPEDTAVYYCTRGGGRAHSAWGQGTLVTVSS VL: EIVLTQSPGTLSVSPGERATLSCRASQSVSRSHLAWYQQKPGQAPRLLIFGASSRATGIPDRFSGSGSGTDFTLTISRLEPEDFAVYYCQQYGRPGVTFGQGTKVEIK	EC50	8.34 nM
PSG3 (antibody, V domains shown, Control anti-PSGL-1 mAb; only variable domains given) VH: QVQLVQSGAEVKKPGSSVRVSCKASGGSFSSYGIHWVQQAPGQGLEWMGRIIPVLRIRNYAQKFHDRVTIDADTSTGTAYMELSSLTSDDTAVYYCAGSRQGVAPTGYWGQGTMVTVSS VL: QAVLTQPSSLSASPGASASLTCNLRSGIDVGTYRIYWYQQKPGSPPQYLLRYKSDSDKQQGSGVPSRFSGTKDASANAGILLISGLQSEDEADYYCMIWHSNGWVFGGGTKLTVL	EC50	~600 nM
10F01 (antibody, IgG4, V domains shown) VH: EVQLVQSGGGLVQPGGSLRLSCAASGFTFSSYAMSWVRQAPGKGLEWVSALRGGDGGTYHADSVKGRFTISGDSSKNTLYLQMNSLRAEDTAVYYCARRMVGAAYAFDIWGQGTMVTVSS VL: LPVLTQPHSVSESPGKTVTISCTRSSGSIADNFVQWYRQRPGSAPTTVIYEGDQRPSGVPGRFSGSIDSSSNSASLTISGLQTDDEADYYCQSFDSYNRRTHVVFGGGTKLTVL	EC50	~3000 nM
20I15 (antibody, V domains shown, From mouse immunisation; only variable domains given; also called 20115) VH: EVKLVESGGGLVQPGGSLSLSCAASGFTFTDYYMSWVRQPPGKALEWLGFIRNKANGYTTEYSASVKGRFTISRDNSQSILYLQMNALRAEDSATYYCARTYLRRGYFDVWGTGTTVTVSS VL: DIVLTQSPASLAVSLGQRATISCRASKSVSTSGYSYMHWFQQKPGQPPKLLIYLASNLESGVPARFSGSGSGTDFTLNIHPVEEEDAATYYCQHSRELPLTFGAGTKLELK	EC50	~3000 nM
03D07 (antibody, IgG4, V domains shown) VH: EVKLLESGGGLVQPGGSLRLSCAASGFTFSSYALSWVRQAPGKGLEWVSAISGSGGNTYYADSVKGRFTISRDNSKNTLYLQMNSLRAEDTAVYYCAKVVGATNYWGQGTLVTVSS VL: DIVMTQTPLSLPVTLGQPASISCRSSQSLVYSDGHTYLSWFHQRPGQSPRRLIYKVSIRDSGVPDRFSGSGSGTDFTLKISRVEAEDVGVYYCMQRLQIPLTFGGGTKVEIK	EC50	> 3000 nM
